- Test system: Klebsiella pneumoniae
- experiment_description: Antibacterial activity against Klebsiella pneumoniae
- Format: functional
readout: MIC90 (mg/L)
State just the number; it will be interpreted in mg/L.

Given the compound C[C@@](CCc1cc(-c2ccccc2)on1)(C(=O)NO)S(C)(=O)=O , what is its reported MIC90? 32

Given the compound C[C@@](CCc1cc(-c2ccccc2)no1)(C(=O)NO)S(C)(=O)=O , what is its reported MIC90? 4

Given the compound C[C@@](CCn1cc(-c2ccc(Cl)cc2F)nn1)(C(=O)NO)S(C)(=O)=O , what is its reported MIC90? 2

Given the compound COc1ccc(-c2cc(CC[C@](C)(C(=O)NO)S(C)(=O)=O)on2)c(F)c1 , what is its reported MIC90? 8
